Data origin: patent US20110217237A1

Target: T1, cynomolgus monkey DLL4 extracellular domain (cynomolgus monkey)
T1 construct: extracellular domain; also called cynoDLL4 ECD; Cyno DLL4
Experiment: SPR (Biacore)
The following binders are listed with their measured pKd values.
pKd is defined as minus the log10 of a concentration measured in mol/L.

Below are worked cases with known answers.
>  <Binder>
h1A11.1 (antibody, V domains shown, humanized IgG; also called hu1A11.1; VH.1/VL.1 1A11) VH: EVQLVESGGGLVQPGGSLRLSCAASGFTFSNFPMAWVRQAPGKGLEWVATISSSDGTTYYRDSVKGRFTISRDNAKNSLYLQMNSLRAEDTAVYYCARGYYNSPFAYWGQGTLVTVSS VL: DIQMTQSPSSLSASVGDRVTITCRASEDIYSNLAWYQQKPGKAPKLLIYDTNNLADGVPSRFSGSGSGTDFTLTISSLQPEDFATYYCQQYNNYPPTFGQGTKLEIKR

>  <pKd>
7.74

$$$$
>  <Binder>
h1A11.H2 (antibody, V domains shown, also called h1A11.H2 VH / h1A11.E12 VL) VH: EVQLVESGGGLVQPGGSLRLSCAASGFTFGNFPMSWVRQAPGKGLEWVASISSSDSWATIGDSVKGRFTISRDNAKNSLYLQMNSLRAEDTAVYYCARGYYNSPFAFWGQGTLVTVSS VL: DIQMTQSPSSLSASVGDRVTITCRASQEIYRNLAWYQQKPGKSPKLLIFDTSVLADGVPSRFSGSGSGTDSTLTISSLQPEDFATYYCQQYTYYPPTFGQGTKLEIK

>  <pKd>
9.46

$$$$
>  <Binder>
h1A11.B5 (antibody, V domains shown, also called h1A11.B5 VH / h1A11.B5 VL) VH: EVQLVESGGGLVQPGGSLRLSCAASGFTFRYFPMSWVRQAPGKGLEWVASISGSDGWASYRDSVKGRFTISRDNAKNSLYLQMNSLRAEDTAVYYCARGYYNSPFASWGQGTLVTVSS VL: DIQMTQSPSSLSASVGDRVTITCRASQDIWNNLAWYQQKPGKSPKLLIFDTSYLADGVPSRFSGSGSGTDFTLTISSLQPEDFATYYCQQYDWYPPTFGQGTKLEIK

>  <pKd>
8.82

$$$$
>  <Binder>
h1A11.A7 (antibody, V domains shown, also called h1A11VH.1 / h1A11.A7 VL) VH: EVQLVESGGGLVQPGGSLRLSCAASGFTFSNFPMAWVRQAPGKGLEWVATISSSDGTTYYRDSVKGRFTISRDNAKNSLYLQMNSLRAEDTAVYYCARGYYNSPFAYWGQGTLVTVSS VL: DIQMTQSPSSLSASVGDRVTITCRASQDIYINLAWYQQKPGKAPKLLIFDTSDLADGVPSRFSGSGSGTDFTLTISSLQPEDFATYYCQQYDYYPPTFGQGTKLEIK

>  <pKd>
8.11

$$$$

Then there is this binder:
// lookup pKd for h1A11.G3 (antibody, V domains shown, also called h1A11.G3 VH / h1A11.E12 VL) VH: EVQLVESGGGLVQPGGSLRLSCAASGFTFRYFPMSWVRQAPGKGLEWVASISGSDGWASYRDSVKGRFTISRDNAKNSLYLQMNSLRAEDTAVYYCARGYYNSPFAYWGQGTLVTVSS VL: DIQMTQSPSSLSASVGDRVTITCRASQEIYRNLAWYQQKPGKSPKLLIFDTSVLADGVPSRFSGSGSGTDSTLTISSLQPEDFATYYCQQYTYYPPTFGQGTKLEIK
9.77
